Tested on: HIV-infected MT-4 cells
Run description: Inhibition of the HIV-induced cytopathic effect in MT-4 cells (MTT)
Assay type: cell-based
Conditions used: Human immunodeficiency virus 1, MT4, read-out: IC50 (50% inhibitory concentration; dose achieving 50% protection); HIV-infected MT-4 cells, MTT, OD 540 nm
What IC50 was measured for each of the following?
One number for each entry, in nM.

Known IC50 results, listed for orientation:
Compound | Unit info | IC50
COC(=O)c1cc(Nc2c(C)cc(C)cc2C)nc(Nc2ccc(C#N)cc2)n1 [Compound 62] | nM | 6.3
Cc1cc(C)c(Nc2nc(Nc3ccc(C#N)cc3)nc(C(N)=O)c2Br)c(C)c1 [Compound 98] | nM | 3.16
N#Cc1ccc(Nc2nc(Cc3c(Cl)cccc3Cl)nc(N3CCC(=O)O3)n2)cc1 [Compound 35] | nM | 63.1

Go through the items and report each one's IC50.
1. Cc1cc(C)c(Nc2cc(C(=O)N(C)C)nc(Nc3ccc(C#N)cc3)n2)c(C)c1 [Compound 66]
2. Cc1cc(C#N)cc(C)c1Nc1cc(C(F)(F)F)nc(Nc2ccc(C#N)cc2)n1 [Compound 33]
3. COCc1cc(Nc2cc(C)c(F)cc2Cl)nc(Nc2ccc(C#N)cc2)n1 [Compound 3]
4. Cc1cc(C)c(Nc2nc(Nc3ccc(C#N)cc3)nc(C(N)=O)n2)c(C)c1 [Compound 19]
5. C=CCONc1nc(Cc2c(Cl)cccc2Cl)nc(Nc2ccc(C#N)cc2)n1 [Compound 43]

[1.58, 3.16, 50.1, 1.26, 15.8]

---

Counter-ions that a name gives are not always drawn.
What melting point was measured for each of the following?

Molecule | Measured endpoint | Recorded result
C[S+]([O-])c1nc(Cc2c(Cl)cccc2Cl)nc(Nc2ccc(C#N)cc2)n1 (stereo not drawn) [Compound 8] | melting point | 219 to 221 °C
Clc1cccc(Cl)c1Cc1nc(Nc2ccc(-c3nnn[nH]3)cc2)nc(-c2nnn[nH]2)n1 [Compound 42] | melting point | 249 to 252 °C
N#Cc1ccc(Nc2nc(Cl)nc(Cc3c(Cl)cccc3Cl)n2)cc1 [Compound 1] | melting point | 243 to 244 °C
N#Cc1ccc(Nc2nc(Cc3c(Cl)cccc3Cl)nc(N3C(=O)CCCC3=O)n2)cc1 [Compound 37] | melting point | 278 to 282 °C
COCc1nc(Nc2ccc(C#N)cc2)nc(Oc2c(C)cc(C#N)cc2C)c1Br [Compound 12] | melting point | 198 to 199 °C

Go through the items and report each one's melting point.
1. N#Cc1ccc(Nc2nc(Cc3c(Cl)cccc3Cl)nc(N3CC(O)CO3)n2)cc1 (stereo not drawn) (as salt: trifluoroacetate) [Compound 11]
2. N#Cc1ccc(Nc2nc(F)nc(Cc3c(Cl)cccc3Cl)n2)cc1 [Compound 49]
3. N#Cc1ccc(Nc2nc(Cc3c(Cl)cccc3Cl)cc(-n3ccnc3)n2)cc1 [Compound 39]

1. 175 °C
2. 199 to 201 °C
3. 275 to 285 °C

For Cc1cc(C#N)cc(C)c1Oc1nc(Cl)nc(Nc2ccc(C#N)cc2)n1 [Compound 60] , write its melting point.
260 to 265 °C

---

Structures can show the parent of a compound that is named as a salt.
What melting point was measured for each of the following?

Go through the items and report each one's melting point.
1. C=CCONc1nc(Cc2c(Cl)cccc2Cl)nc(Nc2ccc(C#N)cc2)n1 (as salt: trifluoroacetate) [Compound 43]
2. CSc1nc(Cc2c(Cl)cccc2Cl)nc(Nc2ccc(C#N)cc2)n1 [Compound 7]
3. N#Cc1ccc(Nc2nc(S)nc(Cc3c(Cl)cccc3Cl)n2)cc1 [Compound 6]

225 to 227 °C
184 to 185 °C
254 to 255 °C

---

Run description: Cytotoxicity in mock-infected MT-4 cells (MTT)
Assay type: cell-based
Conditions used: human, OD 540 nm
Measured endpoint: CC50 (µM)
One number for each entry, in µM.

Go through the items and report each one's CC50.
1. COC(=O)c1cc(Nc2c(C)cc(C)cc2C)nc(Nc2ccc(C#N)cc2)n1 [Compound 62]
2. Cc1cc(C)c(Nc2cc(C(N)=O)nc(Nc3ccc(C#N)cc3)n2)c(C)c1 [Compound 61]

7.94
50.1

---

What CC50 was measured for each of the following?
Run description: Cytotoxicity in mock-infected MT-4 cells (MTT)
Assay type: cell-based
Conditions used: human, OD 540 nm
Answers are plain numbers, in µM.

Smiles notation | Unit info | Recorded result
N#Cc1ccc(Nc2nc(C#N)nc(Cc3c(Cl)cccc3Cl)n2)cc1 | µM | 10
N#Cc1ccc(Nc2nc(Cc3c(Cl)cccc3Cl)nc(N3CCC(=O)O3)n2)cc1 | µM | 50.1
COCc1cc(Oc2c(C)cc(C#N)cc2C)nc(Nc2ccc(C#N)cc2)n1 | µM | 50.1

Go through the items and report each one's CC50.
1. N#Cc1ccc(Nc2nc(Cc3c(Cl)cccc3Cl)nc(N3C(=O)COCC3=O)n2)cc1
2. CNC(=O)c1cc(Nc2c(C)cc(C)cc2C)nc(Nc2ccc(C#N)cc2)n1
3. COc1ccc(Nc2nc(Oc3c(C)cc(C#N)cc3C)cc(C(=O)N(C)C)n2)cn1
4. C=CCONc1nc(Cc2c(Cl)cccc2Cl)nc(Nc2ccc(C#N)cc2)n1

1. 39.8
2. 39.8
3. 79.4
4. 63.1

---

Run description: Cytotoxicity in mock-infected MT-4 cells (MTT)
Format: cell-based
Conditions used: human, OD 540 nm
What CC50 was measured for each of the following?
Give bare numbers, in µM.

Known CC50 results, listed for orientation:
Molecule | CC50 [µM]
Cc1cc(C)c(Nc2nc(Nc3ccc(C#N)cc3)nc(C(N)=O)n2)c(C)c1 [Compound 19] | 3.98
Cc1cc(C)c(Nc2cc(C(=O)N(C)C)nc(Nc3ccc(C#N)cc3)n2)c(C)c1 [Compound 66] | 31.6

Pending molecule:
For N#Cc1ccc(Nc2nc(Cc3c(Cl)cccc3Cl)nc(N3CC(O)CO3)n2)cc1 (stereo not shown) [Compound 11] , write its CC50.
63.1

---

What CC50 was measured for each of the following?
Test system: mock-infected MT-4 cells
Run description: Cytotoxicity in mock-infected MT-4 cells (MTT)
Type: cell-based
Conditions used: read-out: CC50 (50% cytotoxic concentration), OD 540 nm

Known CC50 results, listed for orientation:
Molecule | Recorded result
Cc1cc(C)c(Oc2cc(C(F)(F)F)nc(Nc3ccc(C#N)cc3)n2)c(C)c1 [Compound 25] | > 100 µM
Cc1cc(Cl)cc(Cl)c1Nc1nc(Cl)nc(Nc2ccc(C#N)cc2)n1 [Compound 109] | 12.6 µM
N#Cc1ccc(Nc2nc(Cc3c(Cl)cccc3Cl)nc(N3C(=O)CCC3=O)n2)cc1 [Compound 48] | > 200 µM

Go through the items and report each one's CC50.
1. COCc1cc(Oc2c(Br)cc(C#N)cc2Br)nc(Nc2ccc(C#N)cc2)n1 [Compound 27]
2. CCOc1nc(Cc2c(Cl)cccc2Cl)nc(Nc2ccc(C#N)cc2)n1 [Compound 58]
3. Cc1cc(C)c(Oc2nc(Nc3ccc(C#N)cc3)nc(C(N)=O)n2)c(C)c1 [Compound 26]
4. N#Cc1ccc(Nc2nc(Cl)nc(Nc3c(Cl)cc(Cl)cc3Cl)n2)cc1 [Compound 85]

1. > 10 µM
2. 50.1 µM
3. 2 µM
4. 50.1 µM

Find CC50 for CSc1nc(Nc2ccc(C#N)cc2)nc(Nc2c(C)cc(C)cc2C)n1 [Compound 20] on mock-infected MT-4 cells and write it down.
3.98 µM

---

Tested on: HIV-infected MT-4 cells
Run description: Inhibition of the HIV-induced cytopathic effect in MT-4 cells (MTT)
Assay type: cell-based
Conditions used: Human immunodeficiency virus 1, MT4, read-out: IC50 (50% inhibitory concentration; dose achieving 50% protection); HIV-infected MT-4 cells, MTT, OD 540 nm
What IC50 was measured for each of the following?
// return the numeric value with its unit appended

Known IC50 results, listed for orientation:
Molecule | Target | Measured endpoint | Recorded result
COc1ccc(Nc2nc(Oc3c(C)cc(C#N)cc3C)cc(C(=O)N(C)C)n2)cn1 [Compound 65] | HIV-infected MT-4 cells | IC50 | 79.4 nM
COC(=O)c1cc(Oc2c(C)cc(C#N)cc2C)nc(Nc2ccc(C#N)cc2)n1 [Compound 71] | HIV-infected MT-4 cells | IC50 | 25.1 nM
N#Cc1ccc(Nc2nc(C#N)nc(Cc3c(Cl)cccc3Cl)n2)cc1 [Compound 5] | HIV-infected MT-4 cells | IC50 | 19.9 nM

Go through the items and report each one's IC50.
1. COCc1nc(Nc2ccc(C#N)cc2)nc(Oc2c(C)cc(C#N)cc2C)c1Br [Compound 12]
2. COCc1cc(Oc2c(C)cc(C#N)cc2C)nc(Nc2ccc(C#N)cc2)n1 [Compound 2]
3. N#Cc1ccc(Nc2nc(Cc3c(Cl)cccc3Cl)nc(C(N)=O)n2)cc1 [Compound 38]
4. CSc1nc(Cc2c(Cl)cccc2Cl)nc(Nc2ccc(C#N)cc2)n1 [Compound 7]
5. N#Cc1ccc(Nc2nc(Cc3c(Cl)cccc3Cl)nc(N3C(=O)COCC3=O)n2)cc1 [Compound 4]
6. N#Cc1ccc(Nc2nc(CO)c(Br)c(Oc3c(Br)cc(C#N)cc3Br)n2)cc1 [Compound 16]

1: 4 nM; 2: 1.58 nM; 3: 2.51 nM; 4: 20 nM; 5: 1.58 nM; 6: 25.1 nM

Go through the items and report each one's IC50.
1. COc1ccc(Nc2nc(Oc3c(C)cc(C#N)cc3C)cc(C(N)=O)n2)cn1 [Compound 56]
2. COc1nc(Cc2c(Cl)cccc2Cl)nc(Nc2ccc(C#N)cc2)n1 [Compound 9]
3. N#Cc1ccc(Nc2nc(CO)cc(Oc3c(Br)cc(C#N)cc3Br)n2)cc1 [Compound 14]

["63.1 nM", "10 nM", "4 nM"]
